# System: Phosphorylation of STAT6 in human PBMC (CD19+ B cells)
# assayComment: Phosphorylated STAT6 (pSTAT6) flow cytometry assay in human PBMC, IL-4 stimulated
# Assay type: cell-based
# measurementContext: compound 1 hour, 1 ng/ml IL-4 for 15 minutes, read-out: STAT6 IL4 pSTAT6 assay in PBMC: Average IC50
valueKind: IC50

Known IC50 results, listed for orientation:
CC(=O)OCC(C(=O)N1CCC=C(c2ccc3cc(C(=O)N(C)C)[nH]c3c2)C1)c1ccccc1 (stereo not shown); 10 to 100 µM
CN(C)C(=O)c1cc2cc(C3CCC(CO)N(C(=O)CCn4ccnn4)C3)ccc2o1 (stereo not shown) [Example I-154]; > 100 µM
CN(C)C(=O)c1cc2ccc(C3=CCCN(C(=O)c4ccc5c(c4)OCC(=O)N5)C3)cc2[nH]1; > 100 µM

For the 4 compounds below, give their IC50 values.
1. Cc1cccc(C)c1N1CC(C(=O)N2CCC=C(c3ccc4cc(C(=O)N(C)C)[nH]c4c3)C2)CC1=O (stereo not shown)
2. CN(C)C(=O)c1cc2ccc(C3=CCCN(C(=O)CCc4nnco4)C3)cc2[nH]1
3. CCOC(=O)N(CC(=O)N1CCC=C(c2ccc3cc(C(=O)N(C)C)[nH]c3c2)C1)Cc1ccco1
4. CN(C)C(=O)c1cc2ccc(C3=CCCN(C(=O)c4ccc(-c5ccc(Cl)cc5)cc4)C3)cc2[nH]1

1: 10 to 100 µM; 2: > 100 µM; 3: > 100 µM; 4: 10 to 100 µM

----------
# System: Phosphorylation of STAT6 in human PBMC (CD19+ B cells)
# assayComment: Phosphorylated STAT6 (pSTAT6) flow cytometry assay in human PBMC, IL-4 stimulated
# Assay type: cell-based
# measurementContext: compound 1 hour, 1 ng/ml IL-4 for 15 minutes, read-out: STAT6 IL4 pSTAT6 assay in PBMC: Average IC50
pIC50: −log10 of the molar value.
Provide the reported pIC50 of each item.

CN(C)C(=O)c1cc2cc(C3=CCCN(C(=O)Cc4cnccn4)C3)ccc2o1; < 4.00
CN(C)C(=O)c1cc2ccc(C3=CCCN(C(=O)c4c[nH]nc4I)C3)cc2[nH]1; 4.00 to 5.00
O=C(CCn1ccnn1)N1CCC=C(c2ccc3cc(C(=O)N4CCC4)[nH]c3c2)C1; < 4.00

Next, consider the following compound.
Which measured pIC50 value corresponds to `CN(C)C(=O)c1nc2cc(C3=CCCN(C(=O)CCn4ccnn4)C3)ccc2[nH]1` ? < 4.00

----------
# System: Phosphorylation of STAT6 in human PBMC (CD19+ B cells)
# assayComment: Phosphorylated STAT6 (pSTAT6) flow cytometry assay in human PBMC, IL-4 stimulated
# Type: cell-based
# measurementContext: compound 1 hour, 1 ng/ml IL-4 for 15 minutes, read-out: STAT6 IL4 pSTAT6 assay in PBMC: Average IC50
Can you tell me IC50 for the items I'm about to list?

Solved cases below.
CN(C)C(=O)c1cc2cc(C3=CCCN(C(=O)[C@@H](N)Cn4ccnn4)C3)ccc2o1 (single isomer, unassigned); > 100 µM
CC(=O)NC(C(=O)N1CCC=C(c2ccc3cc(C(=O)N(C)C)[nH]c3c2)C1)c1cccc(Cl)c1 (stereo not drawn); 10 to 100 µM
CN(C)C(=O)c1cc2ccc(C3=CCCN(C(=O)C4CCN(S(C)(=O)=O)CC4)C3)cc2[nH]1; > 100 µM
CC(=O)N1Cc2ccccc2CC1C(=O)N1CCC=C(c2ccc3oc(C(=O)N(C)C)cc3c2)C1 (stereo not drawn) [Example I-170]; > 100 µM
CN(C)C(=O)c1cc2ccc(C3=CCCN(C(=O)C4CC(=O)N(Cc5ccccc5)C4)C3)cc2[nH]1 (stereo not drawn); 10 to 100 µM
CN(C)C(=O)c1cc2ccc(C3=CCCN(C(=O)C4(O)CCN(Cc5ccccc5)CC4)C3)cc2[nH]1; 10 to 100 µM

Below are some compounds; for each one, tell me its IC50.
1. Cc1cnnn1CCC(=O)N1CCC=C(c2ccc3cc(C(=O)N(C)C)[nH]c3c2)C1
2. CN(C)C(=O)c1cc2ccc(C3=CCCN(C(=O)C4COCC(=O)N4Cc4ccccc4)C3)cc2[nH]1 (stereo not drawn)
3. CN(C)C(=O)c1cc2ccc(C3=CCCN(C(=O)[C@@H]4C[C@H]4c4ccn(C)n4)C3)cc2[nH]1
4. CC(=O)Nc1ccc(CC(=O)N2CCC=C(c3ccc4oc(C(=O)N(C)C)cc4c3)C2)cc1

10 to 100 µM
10 to 100 µM
10 to 100 µM
> 100 µM

----------
Please go through the items and note down their pIC50.
# Tested on: Phosphorylation of STAT6 in human PBMC (CD19+ B cells)
# assayComment: Phosphorylated STAT6 (pSTAT6) flow cytometry assay in human PBMC, IL-4 stimulated
# Assay type: cell-based
# measurementContext: compound 1 hour, 1 ng/ml IL-4 for 15 minutes, read-out: STAT6 IL4 pSTAT6 assay in PBMC: Average IC50
pIC50: −log10 of the molar value.

# count of solved cases: 3
CN(C)C(=O)c1cc2ccc(C3=CCCN(C(=O)CC(c4ccccc4)c4ccccc4)C3)cc2[nH]1; 4.00 to 5.00
CN(C)C(=O)c1cc2ccc(C3=CCCN(C(=O)C4CCC4C(=O)O)C3)cc2[nH]1 (stereo not shown); 4.00 to 5.00
CN(C)C(=O)c1cc2ccc(C3=CCCN(C(=O)c4cnn(C)c4C(F)(F)F)C3)cc2[nH]1; 4.00 to 5.00

Alright, here's another molecule for you.
Can you look up the measured pIC50 of `CN(C)C(=O)c1cc2ccc(C3=CCCN(C(=O)CCc4nnc[nH]4)C3)cc2[nH]1` for me? < 4.00

----------
# System: Phosphorylation of STAT6 in human PBMC (CD19+ B cells)
# assayComment: Phosphorylated STAT6 (pSTAT6) flow cytometry assay in human PBMC, IL-4 stimulated
# Format: cell-based
# measurementContext: compound 1 hour, 1 ng/ml IL-4 for 15 minutes, read-out: STAT6 IL4 pSTAT6 assay in PBMC: Average IC50
Provide the recorded IC50 for the entries that follow.

CN(C)C(=O)c1nc2cc(C3=CCCN(C(=O)CCn4ccnn4)C3)ccc2s1; > 100 µM
CN(C)C(=O)c1cc2ccc(C3=CCCN(C(=O)c4cccnc4-c4ccc(F)c(F)c4)C3)cc2[nH]1; > 100 µM
Cc1cccc(-c2ncccc2C(=O)N2CCC=C(c3ccc4cc(C(=O)N(C)C)[nH]c4c3)C2)c1; > 100 µM
CN(C)C(=O)c1cc2cc(C3=CCCN(C(=O)Cn4ncc5ccccc54)C3)ccc2o1; > 100 µM
CN(C)C(=O)c1nc2cc(C3=CCCN(C(=O)CCc4ccccn4)C3)ccc2[nH]1; > 100 µM
CN(C)C(=O)c1cc2ccc(C3=CCCN(C(=O)[C@@H]4C[C@H](c5ccccc5)CN4)C3)cc2[nH]1; > 100 µM

Dear reader, for each entry below, please note its IC50.
1. CN(C)C(=O)c1cc2ccc(C3=CCCN(C(=O)C4CN(Cc5ccccc5)CCO4)C3)cc2[nH]1 (stereo not drawn)
2. CNC1(C(=O)N2CCC=C(c3ccc4oc(C(=O)N(C)C)cc4c3)C2)CCc2ccccc2C1 (stereo not drawn)

["10 to 100 µM", "10 to 100 µM"]

Please supply IC50 for each of the following items, keeping them in order.
1. COC(=O)[C@H]1CC[C@H](c2ccc3oc(C(=O)N(C)C)cc3c2)CN1C(=O)CCn1ccnn1 (single isomer, unassigned)
2. COCc1oncc1C(=O)N1CCC=C(c2ccc3cc(C(=O)N(C)C)[nH]c3c2)C1
3. C[C@H](Cn1ccnn1)C(=O)N1CCC=C(c2ccc3oc(C(=O)N(C)C)cc3c2)C1 (single isomer, unassigned)
4. CN(C)C(=O)c1cc2ccc(C3=CCCN(C(=O)CCc4ccccc4C#N)C3)cc2[nH]1
5. CN(C)C(=O)c1cc2cc(C3=CCCN(C(=O)CCc4ncccn4)C3)ccc2o1
6. CNc1ccc(-c2cc(C3=CCCN(C(=O)CCn4ccnn4)C3)cc3[nH]c(C(=O)N(C)C)cc23)c(OC)c1
7. CC(Oc1ccccn1)C(=O)N1CCC=C(c2ccc3cc(C(=O)N(C)C)[nH]c3c2)C1 (stereo not drawn)

1: > 100 µM; 2: > 100 µM; 3: 10 to 100 µM; 4: > 100 µM; 5: > 100 µM; 6: < 0.1 µM; 7: 10 to 100 µM

----------
# Test system: Phosphorylation of STAT6 in human PBMC (CD19+ B cells)
# assayComment: Phosphorylated STAT6 (pSTAT6) flow cytometry assay in human PBMC, IL-4 stimulated
# Format: cell-based
# measurementContext: compound 1 hour, 1 ng/ml IL-4 for 15 minutes, read-out: STAT6 IL4 pSTAT6 assay in PBMC: Average IC50
valueKind: IC50

CN(C)C(=O)c1cc2ccc(C3=CCCN(C(=O)c4[nH]nc5c4CS(=O)(=O)C5)C3)cc2[nH]1; 10 to 100 µM
COC(=O)c1ccc(CCC(=O)N2CCC=C(c3ccc4cc(C(=O)N(C)C)[nH]c4c3)C2)[nH]1; 10 to 100 µM
CN(C)C(=O)c1cc2ccc(C3=CCCN(C(=O)Cn4ccccc4=O)C3)cc2[nH]1; > 100 µM
CN(C)C(=O)c1cc2ccc(C3=CCCN(C(=O)CCc4ccc(C#N)cc4)C3)cc2[nH]1; > 100 µM
CN(C)C(=O)c1cc2ccc(C3=CCCN(C(=O)c4nonc4C4CC4)C3)cc2[nH]1; 10 to 100 µM

// input: 3 compounds below; output: IC50 for each
1. CN(C)C(=O)c1cc2cc(C3=CCCN(C(=O)CCc4nncs4)C3)ccc2o1
2. CN(C)C(=O)c1cc2ccc(C3=CCCN(C(=O)C4CCCS4(=O)=O)C3)cc2[nH]1 (centres unmarked)
3. C[C@H]1CCCCN1C(=O)c1cc2ccc(C3=CCCN(C(=O)CCn4ccnn4)C3)cc2[nH]1 (single isomer, unassigned)

["> 100 µM", "10 to 100 µM", "> 100 µM"]
